# pIC50 per entry
target: UniProt:P34913; assay: sEH inhibitory activity; conditions: read-out: Inhibition of compounds against sEH, IC50; PHOME 10 μM, 20 min, 37 °C, pH 7.4
API: returns pIC50 as number; meaning -log10 of concentration in mol/L.

- C=C(C)[C@@H]1OC(C)(C)O[C@H]1C[C@@H](C)C1=C2C[C@H](O)[C@H]3[C@@]4(C)CCC(=O)C(C)(C)[C@@H]4CC[C@]3(C)[C@@]2(C)CC1 [Compound 24, alisol G (23, 24)-diol acetonide]: 4.84
- C=C(C)[C@H](O)[C@@H]1C[C@@H](C)C2=C3C[C@H](O)[C@H]4[C@@]5(C)CCC(=O)C(C)(C)[C@@H]5CC[C@]4(C)[C@@]3(C)C[C@@H]2O1 [Compound 16, 25-anhydro alisol F]: 4.67

Measured pIC50 of C[C@@H]1C[C@@H]([C@@H](O)C(C)(C)O)O[C@H]2C[C@@]3(C)C(=C12)CC[C@H]1[C@@]2(C)CCC(=O)C(C)(C)[C@@H]2CC[C@@]13C : 4.66

Measured pIC50 of C=C(C)[C@@H](O)[C@@H](O)C[C@@H](C)C1=C2CC[C@H]3[C@@]4(C)CCC(=O)C(C)(C)[C@@H]4CC[C@]3(C)[C@@]2(C)CC1 [Compound 4, 11-deoxy-25-anhydro alisol E] : 5.23

Measured pIC50 of CC(C)[C@@H](O)C[C@@H](C)C1=C2C[C@H](O)[C@H]3[C@@]4(C)CCC(=O)C(C)(C)[C@@H]4CC[C@]3(C)[C@@]2(C)CC1 : 5.15

====

target: sEH (Homo sapiens, UniProt P34913); assay: sEH inhibitory activity; details: read-out: Inhibition of compounds against sEH, IC50; PHOME 10 μM, 20 min, 37 °C, pH 7.4
Sequence (P34913 whole entry): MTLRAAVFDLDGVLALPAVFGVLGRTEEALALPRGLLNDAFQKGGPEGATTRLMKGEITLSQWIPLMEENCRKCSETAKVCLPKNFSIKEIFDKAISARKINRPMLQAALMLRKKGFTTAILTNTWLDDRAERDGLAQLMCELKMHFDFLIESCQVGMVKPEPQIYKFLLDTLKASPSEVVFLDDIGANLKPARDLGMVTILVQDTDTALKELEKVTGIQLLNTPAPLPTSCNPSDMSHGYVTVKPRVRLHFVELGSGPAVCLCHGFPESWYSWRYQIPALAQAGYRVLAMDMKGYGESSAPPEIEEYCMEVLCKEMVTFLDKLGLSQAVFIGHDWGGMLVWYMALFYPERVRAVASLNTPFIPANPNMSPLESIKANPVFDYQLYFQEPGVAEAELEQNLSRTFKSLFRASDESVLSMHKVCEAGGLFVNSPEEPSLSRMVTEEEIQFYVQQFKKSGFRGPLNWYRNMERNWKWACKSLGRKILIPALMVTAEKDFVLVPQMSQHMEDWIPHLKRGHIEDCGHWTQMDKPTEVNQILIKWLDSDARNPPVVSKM
measure name: IC50

Here are 5 compounds together with their reported answers.
• COC1CC2(C)C(=C1C(C)CC(O)C(OC(C)=O)C(C)(C)O)C(O)CC1C3(C)CCC(=O)C(C)(C)C3CCC12C (stereo not shown) = > 50 µM
• C[C@@H]1C[C@@H]([C@@H](O)C(C)(C)O)O[C@H]2C[C@@]3(C)C(=C12)[C@H](O)C[C@H]1[C@@]2(C)CCC(=O)C(C)(C)[C@@H]2CC[C@@]13C [Compound 22, 11-deoxy-12β-hydroxy alisol F] = > 50 µM
• C=C(C)[C@H](O)[C@@H](O)C[C@@H](C)C1=C2C=C[C@H]3[C@@]4(C)CCC(=O)C(C)(C)[C@@H]4CC[C@]3(C)[C@@]2(C)CC1=O = > 50 µM
• CC(=O)O[C@H]([C@@H](O)C[C@@H](C)C1=C2C[C@H](O)[C@H]3[C@@]4(C)CCC(=O)C(C)(C)[C@@H]4CC[C@]3(C)[C@@]2(C)CC1)C(C)(C)O [Compound 25, alisol A 24-acetate] = 21.4 µM
• C=C(C)[C@@H](O)[C@@H]1C[C@@H](C)[C@@]2(CC[C@@]3(C)C2=C[C@H](OC)[C@H]2[C@@]4(C)CCC(=O)C(C)(C)[C@@H]4CC[C@@]23C)O1 = 14.6 µM

Item CC(CC(O)C(O)C(C)(C)O)C1=C2C(O)C(O)C3C4(C)CCC(=O)C(C)(C)C4CC(O)C3(C)C2(C)CC1 (stereo not drawn) [Compound 8, 7α,12α-dihydroxyalisol A] ; assay system sEH (Homo sapiens, UniProt P34913); IC50 reported as > 50 µM

Item CC(CC(O)C(=O)C(C)(C)O)C1=C2CC(O)C3C4(C)CCC(=O)C(C)(C)C4CC(O)C3(C)C2(C)CC1 (stereo not drawn) [Compound 10, 7α-hydroxy-24-oxo alisol A] ; assay system sEH (Homo sapiens, UniProt P34913); IC50 reported as > 50 µM

Source of measurements: paper PMC7233170
